Values compiled from patent US9546153B2.

Tested on: TLR2 induced IL-6 in peripheral blood mononuclear cells (PBMCs)
assay_comment: PBMC TLR2 Induced IL-6 Assay
Type: cell-based, human
measurement_setup: Homo sapiens, PBMC, 5 h, human PBMCs, 10 μg/ml lipoteichoic acid for 5 hours, IL-6 by ELISA; value without asterisk; read-out: Cell IC50
// reported pIC50 per item
Please note pIC50 is a logarithmic value: minus log10 of concentration in mol/L. Answer with that number alone.

Q) Returns the measured pIC50 for the input compound. Input: `CC(C)Nc1cc(Nc2nc3ccnn3cc2F)ncc1C(=O)NC[C@@H](F)C(C)(C)O`
A) 6.24

// below: pIC50 requested for another compound
Q) Returns the measured pIC50 for the input compound. Input: `CC(C)Nc1cc(Nc2ccn3ncc(F)c3n2)ncc1C(=O)NC[C@@H](F)C(C)(C)O`
A) 6.81
